# Test system: SNB-75 CNS
# TEST NAME: NCI-60 one-dose screen, 48 h
# RUN PARAMETERS: 10 µM unless noted
The panel holds about 83,000 compounds, 20% with a hit somewhere; the sample as a whole holds those more often. Calls of active or inactive are those of the source. The calls were made as follows: active = growth percent below 10; inactive = the rest.
Write down the outcome that applies. Available outcomes: 1 for active, -1 for inactive

Sample answers from the record:
- COMPOUND: "Cc1cccc(C)c1NCc1nnc(-c2ccc(O)cc2)o1"
  ASSIGNED CLASS: -1
- COMPOUND: "O=[N+]([O-])c1ccc(Oc2ccc(-c3ccccc3)cc2)cc1"
  ASSIGNED CLASS: -1
- COMPOUND: "O=C1C(=O)c2c(nc3ccc(C(F)(F)F)cn23)-c2ccccc21"
  ASSIGNED CLASS: 1

Could you please tell me the result logged for COc1cccc2c1-c1ccccc1C2=O in this assay?
-1

Could you please tell me the result logged for Cc1ccc(C(=O)/C(=C/c2ccc([N+](=O)[O-])cc2)S(=O)Cc2ccccc2)cc1 (stereo not given) in this assay?
-1

Could you please tell me the result logged for O=c1cc(/C=N\Nc2nc(-c3ccc(Cl)cc3Cl)cs2)c2cc(Cl)ccc2o1 in this assay?
-1

----------
# Test system: TK-10 renal
# TEST NAME: NCI-60 one-dose screen, 48 h
# RUN PARAMETERS: 10 µM unless noted
This is part of a sample that, as a whole, favours compounds with a hit. Of some 83,000 tested, about 20% had one in any assay. Activity calls are given as the source filed them. The calls were made as follows: active = growth percent below 10; inactive = the rest.
Write down the outcome that applies. Available outcomes: 1 (yes) (active), 0 (no) (inactive)

Sample answers from the record:
- COMPOUND: "CCOC(=O)C1=C(C)n2nc(CC#N)c(C#N)c2NC1c1ccc(Cl)cc1 (centres undefined)"
  ASSIGNED CLASS: "0 (no)"
- COMPOUND: "CC(C)(C)c1nc2c(s1)c1nc(N)ncc1c1ccc(NS(=O)(=O)c3c(F)cccc3F)c(F)c12"
  ASSIGNED CLASS: "0 (no)"
- COMPOUND: "CCOC(=O)c1c(C(F)(F)F)n([O-])c2ccc(Cl)cc2[n+]1=O"
  ASSIGNED CLASS: "1 (yes)"
- COMPOUND: "COc1cc2nc3c(=O)n(-c4ccc(C#N)cc4)cnn3c(=O)c2cc1OC"
  ASSIGNED CLASS: "0 (no)"
- COMPOUND: "Cc1ccc(C(=O)/C(=C/c2ccc([N+](=O)[O-])cc2)S(=O)Cc2ccccc2)cc1 (centres undefined)"
  ASSIGNED CLASS: "1 (yes)"

Could you please tell me the result logged for CC(C)Cc1cc(CNC(=O)C2[C@H]3CN(C(=O)c4ccccc4)C[C@@H]23)nn1-c1ccccc1 (some centres undefined) in this assay?
0 (no)

Could you please tell me the result logged for C=C(C)[C@@H]1CC[C@]2(C(=O)NCCCO)CC[C@]3(C)[C@H](CC[C@@H]4[C@@]5(C)CCCNC(C)(C)[C@@H]5CC[C@]43C)[C@@H]12 in this assay?
0 (no)

Could you please tell me the result logged for CC(C)(C)CC(C)(C)Cc1ccc(OCCOCC[N+](C)(C)Cc2ccccc2)cc1 in this assay?
0 (no)

Could you please tell me the result logged for CCO/C=N/S(=O)(=O)c1cc2c(cc1Cl)NC=NS2(=O)=O in this assay?
0 (no)
